The molecules listed here are annotated with their Ki.
target: rat TAAR1 (Rattus norvegicus (Rat), UniProt Q923Y9); test: Radioligand binding assay on rat TAAR1; settings: rat TAAR1, HEK-293 membranes; second value of mouse/rat cell
Sequence (Q923Y9 whole entry): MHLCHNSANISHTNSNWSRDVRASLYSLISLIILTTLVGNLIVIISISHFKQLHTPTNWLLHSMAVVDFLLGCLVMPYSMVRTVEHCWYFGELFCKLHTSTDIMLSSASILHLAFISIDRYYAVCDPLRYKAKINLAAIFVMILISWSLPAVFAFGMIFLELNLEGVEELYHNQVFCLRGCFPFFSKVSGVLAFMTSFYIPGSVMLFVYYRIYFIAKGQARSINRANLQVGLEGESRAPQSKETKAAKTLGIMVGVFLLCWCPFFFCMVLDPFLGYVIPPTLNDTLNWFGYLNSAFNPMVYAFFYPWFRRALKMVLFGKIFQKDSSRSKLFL
Where a name gives a salt, the structure may show the parent alone.
Return type: number; implicit unit µM.

These solved cases illustrate the format of a correct answer.
O=C(Nc1ccc(C2CCCNC2)cc1)c1cnn(-c2ccccc2)n1 (racemic) ... 0.0017
O=C(Nc1ccc([C@H]2CNCCO2)cc1)c1cnn(-c2ccc(OC(F)F)cc2)n1 [Example 16, hydrochloride] ... 0.0002
O=C(Nc1ccc([C@H]2CNCCO2)cc1)c1cnn(-c2ccc(F)cc2)n1 [Example 9, hydrochloride] ... 0.0006
CCOc1ccc(-n2cc(C(=O)Nc3ccc([C@H]4CNCCO4)cc3)nn2)cc1 [Example 21, hydrochloride] ... 0.0293
O=C(Nc1ccc(C2CCNC2)cc1)c1cn(-c2ccc(OC(F)F)cc2)nn1 (racemic) ... 0.0189
Cc1ccc(-n2cc(C(=O)Nc3ccc([C@H]4CNCCO4)cc3)nn2)cc1 [Example 17, hydrochloride] ... 0.0174

API: the following record is the query input.
Inquiry: Hello, I am looking for reported Ki with rat TAAR1 (Rattus norvegicus (Rat), UniProt Q923Y9) for O=C(Nc1ccc([C@H]2CNCCO2)cc1)c1cnn(-c2ccc(Cl)cc2)n1 [Example 6, hydrochloride] . Could you help?
Reply text: 0.0002

---

molecular target: rat TAAR1 (Rattus norvegicus (Rat), UniProt Q923Y9)
Endpoint: Kd

Inquiry: So what Kd did CCN(C[C@H]1COC(N)=N1)c1ccccc1 [reference compound] get with rat TAAR1 (Rattus norvegicus (Rat), UniProt Q923Y9)?
Reply text: ~2.3 nM

---

target: UniProt:Q923Y9; test: Radioligand binding assay on rat TAAR1; conditions: rat TAAR1, HEK-293 membranes; second value of mouse/rat cell
Where a name gives a salt, the structure may show the parent alone.
Rule: measured Ki below 0.001 µM gets label 1; anything equal to or greater than 0.001 µM gets label 0.

O=C(Nc1ccc([C@H]2CNCCO2)cc1)c1cnn(-c2cccc(OC(F)(F)F)c2)n1 [Example 28, hydrochloride] ... label 0
Cc1nn(-c2ccccc2)nc1C(=O)Nc1ccc([C@H]2CNCCO2)cc1 [Example 2, hydrochloride] ... label 1
O=C(Nc1ccc([C@H]2CNCCO2)cc1)c1ncn(-c2ccc(OC(F)F)cc2)n1 [Example 32, hydrochloride] ... label 0
O=C(Nc1ccc([C@H]2CNCCO2)cc1)c1cnn(-c2cccc(F)c2)n1 [Example 11, hydrochloride] ... label 1
O=C(Nc1ccc([C@@H]2CNCCO2)cc1)c1cnn(-c2ccccc2)n1 [Example 8, hydrochloride] ... label 1

Next compound, please.
Inquiry: Report whether reported Ki is lower than 0.001 µM (strictly) for COc1ccc(-n2ncc(C(=O)Nc3ccc([C@H]4CNCCO4)cc3)n2)cc1 [Example 20, hydrochloride]
Reply text: label 0

---

biological target: mouse TAAR1 (Mus musculus (Mouse), UniProt Q923Y8); experiment: Radioligand binding assay on mouse TAAR1; details: mouse TAAR1, HEK-293 membranes; first value of mouse/rat cell
Sequence (Q923Y8 whole entry): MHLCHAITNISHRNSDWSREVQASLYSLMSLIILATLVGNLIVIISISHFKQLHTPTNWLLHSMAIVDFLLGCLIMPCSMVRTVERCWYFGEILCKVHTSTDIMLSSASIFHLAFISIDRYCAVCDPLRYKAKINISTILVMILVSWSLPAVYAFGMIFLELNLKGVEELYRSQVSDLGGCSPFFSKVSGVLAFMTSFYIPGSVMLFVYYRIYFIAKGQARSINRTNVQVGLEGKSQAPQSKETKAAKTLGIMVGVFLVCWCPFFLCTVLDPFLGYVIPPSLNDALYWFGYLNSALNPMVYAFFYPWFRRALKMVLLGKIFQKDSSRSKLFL
Structures can show the parent of a compound that is named as a salt.
Some compounds, each annotated with its measured log10 Ki.
Recall that a logarithmic scale is used here: each number is log10 of Ki in µM.

Cc1ccc(-n2ncc(C(=O)Nc3ccc([C@H]4CNCCO4)cc3)n2)cc1 [Example 18, hydrochloride] ... -3.15

Inquiry: # input compound: COc1cccc(-n2cc(C(=O)Nc3ccc([C@H]4CNCCO4)cc3)nn2)c1 [Example 25, hydrochloride] ; wanted: its log10 Ki
Reply text: -2.85

Inquiry: Quick one: log10 Ki for O=C(Nc1ccc([C@H]2CNCCO2)cc1)c1cnn(-c2ccc(OC(F)F)cc2)n1 [Example 16, hydrochloride] ?
Reply text: -3.52

Inquiry: Look at this compound and give its reported log10 Ki. O=C(Nc1ccc([C@H]2CNCCO2)cc1)c1cnn(-c2cccc(Cl)c2)n1 [Example 12, hydrochloride]
Reply text: -3.70

---

target: rat TAAR1 (Rattus norvegicus (Rat), UniProt Q923Y9); test: Radioligand binding assay on rat TAAR1; details: rat TAAR1, HEK-293 membranes; second value of mouse/rat cell
Counter-ions that a name gives are not always drawn.
# strict inequality: Ki < 0.001 µM yields MET, everything else yields NOT MET

Study these solved cases before continuing.
O=C(Nc1ccc([C@H]2CNCCO2)cc1)c1cn(-c2cccc(OC(F)(F)F)c2)nn1 [Example 27, hydrochloride] ... NOT MET
Cc1nn(-c2ccccc2)nc1C(=O)Nc1ccc([C@@H]2CNCCO2)cc1 [Example 7, hydrochloride] ... MET

Inquiry: Lab note: Ki threshold 0.001 µM. Does this compound come in strictly under it? O=C(Nc1ccc([C@H]2CNCCO2)cc1)c1cn(-c2cccc(OC(F)F)c2)nn1 [Example 29, hydrochloride]
Reply text: MET

---

Catalogue of Ki readings, one per entry.
target: rat TAAR1 (Rattus norvegicus (Rat), UniProt Q923Y9); experiment: Radioligand binding assay on rat TAAR1; conditions: rat TAAR1, HEK-293 membranes; second value of mouse/rat cell
Where a name gives a salt, the structure may show the parent alone.
All answers are understood in µM, so give the number only.

COc1cccc(-n2ncc(C(=O)Nc3ccc([C@H]4CNCCO4)cc3)n2)c1 [Example 30, hydrochloride] ... 0.0082
CCOc1cccc(-n2cc(C(=O)Nc3ccc([C@H]4CNCCO4)cc3)nn2)c1 [Example 26, hydrochloride] ... 0.0032

For the next question, use this compound.
Inquiry: Fill in: Ki of COc1cccc(-n2cc(C(=O)Nc3ccc([C@H]4CNCCO4)cc3)nn2)c1 [Example 25, hydrochloride] is ___
Reply text: 0.0092

---

molecular target: rat TAAR1 (Rattus norvegicus (Rat)); assay: Radioligand binding assay on rat TAAR1; conditions: rat TAAR1, HEK-293 membranes; second value of mouse/rat cell
Where a name gives a salt, the structure may show the parent alone.
Endpoint: Ki (µM)
Give your result in µM as a bare value.

O=C(Nc1ccc([C@H]2CNCCO2)cc1)c1cnn(-c2cccc(C(F)(F)F)c2)n1 [Example 13, hydrochloride] ... 0.0006

Inquiry: Please give the measured Ki for this compound: Cc1cccc(-n2cc(C(=O)Nc3ccc([C@H]4CNCCO4)cc3)nn2)c1 [Example 24, hydrochloride]
Reply text: 0.0069

Inquiry: Would you kindly share the measured Ki for O=C(Nc1ccc([C@H]2CNCCO2)cc1)c1cnn(-c2cccc(Cl)c2)n1 [Example 12, hydrochloride] ?
Reply text: 0.0002

Inquiry: # input compound: Cc1ccc(-n2ncc(C(=O)Nc3ccc([C@H]4CNCCO4)cc3)n2)cc1 [Example 18, hydrochloride] ; wanted: its Ki
Reply text: 0.0016

---

molecular target: mouse TAAR1 (Mus musculus (Mouse)); test: Radioligand binding assay on mouse TAAR1; details: mouse TAAR1, HEK-293 membranes; first value of mouse/rat cell
Structures can show the parent of a compound that is named as a salt.
# Lookup of reported Ki keyed by entry
Answer format reminder: number followed by unit.

O=C(Nc1ccc([C@H]2CNCCO2)cc1)c1cnn(-c2cccc(OC(F)(F)F)c2)n1 [Example 28, hydrochloride] ... 0.0034 µM
O=C(Nc1ccc([C@H]2CNCCO2)cc1)c1cnn(-c2cccc(F)c2)n1 [Example 11, hydrochloride] ... 0.0003 µM
O=C(Nc1ccc([C@H]2CNCCO2)cc1)c1ncn(-c2ccc(OC(F)F)cc2)n1 [Example 32, hydrochloride] ... 0.0018 µM
Cc1cccc(-n2ncc(C(=O)Nc3ccc([C@H]4CNCCO4)cc3)n2)c1 [Example 23, hydrochloride] ... 0.0011 µM
CCOc1ccc(-n2ncc(C(=O)Nc3ccc([C@H]4CNCCO4)cc3)n2)cc1 [Example 22, hydrochloride] ... 0.0008 µM
Cc1nn(-c2ccccc2)nc1C(=O)Nc1ccc([C@@H]2CNCCO2)cc1 [Example 7, hydrochloride] ... 0.0027 µM
CCOc1ccc(-n2cc(C(=O)Nc3ccc([C@H]4CNCCO4)cc3)nn2)cc1 [Example 21, hydrochloride] ... 0.0018 µM
CCOc1cccc(-n2ncc(C(=O)Nc3ccc([C@H]4CNCCO4)cc3)n2)c1 [Example 31, hydrochloride] ... 0.013 µM
O=C(Nc1ccc(C2CCNC2)cc1)c1cn(-c2ccc(OC(F)F)cc2)nn1 (racemic) ... 0.0049 µM
COc1ccc(-n2cc(C(=O)Nc3ccc([C@H]4CNCCO4)cc3)nn2)cc1 [Example 19, hydrochloride] ... 0.0016 µM

Inquiry: Can you share its Ki? I mean this compound: O=C(Nc1ccc([C@H]2CNCCO2)cc1)c1cnn(-c2ccc(Cl)cc2)n1 [Example 6, hydrochloride]
Reply text: 0.0004 µM

Inquiry: What Ki value was documented for this compound, O=C(Nc1ccc([C@H]2CNCCO2)cc1)c1cn(-c2ccc(Br)cn2)nn1 [Example 36, hydrochloride] ?
Reply text: 0.0046 µM

Inquiry: Bench note: what Ki did COc1ccc(-n2ncc(C(=O)Nc3ccc([C@H]4CNCCO4)cc3)n2)cc1 [Example 20, hydrochloride] show?
Reply text: 0.0014 µM

Inquiry: Item Cc1ccc(-n2cc(C(=O)Nc3ccc([C@H]4CNCCO4)cc3)nn2)cc1 [Example 17, hydrochloride] has what recorded Ki?
Reply text: 0.0013 µM

Inquiry: Fill blank: measured Ki of the compound Cc1cccc(-n2cc(C(=O)Nc3ccc([C@H]4CNCCO4)cc3)nn2)c1 [Example 24, hydrochloride] is ____.
Reply text: 0.0013 µM

Inquiry: So what's the measured Ki for this one? COc1cccc(-n2ncc(C(=O)Nc3ccc([C@H]4CNCCO4)cc3)n2)c1 [Example 30, hydrochloride]
Reply text: 0.0032 µM

Inquiry: Name the recorded Ki for O=C(Nc1ccc([C@H]2CNCCO2)cc1)c1cnn(-c2ccc(F)cc2)n1 [Example 9, hydrochloride] .
Reply text: 0.0004 µM
